Consider the following compounds and their measured melting point readings.

// returns reported melting point for input CN(C)CCCNC(=O)c1ccc(-c2cccc(CSCCOc3ccccc3)c2)cc1.O=C(O)C(=O)O [Example 15]
133 to 137 °C

// returns reported melting point for input "CN(C)CCNC(=O)c1ccccc1-c1cccc(CSCCOc2ccccc2)c1.Cl"
150 to 153 °C

====

# tested.on: human MCHR1 (Homo sapiens, UniProt Q99705)
# Construct: The full-length cDNA for human MCHR1 was cloned; expressed in transfected cells; host or cells: AV12 cells previously transfected with Gα15
# Sequence (Q99705 whole entry): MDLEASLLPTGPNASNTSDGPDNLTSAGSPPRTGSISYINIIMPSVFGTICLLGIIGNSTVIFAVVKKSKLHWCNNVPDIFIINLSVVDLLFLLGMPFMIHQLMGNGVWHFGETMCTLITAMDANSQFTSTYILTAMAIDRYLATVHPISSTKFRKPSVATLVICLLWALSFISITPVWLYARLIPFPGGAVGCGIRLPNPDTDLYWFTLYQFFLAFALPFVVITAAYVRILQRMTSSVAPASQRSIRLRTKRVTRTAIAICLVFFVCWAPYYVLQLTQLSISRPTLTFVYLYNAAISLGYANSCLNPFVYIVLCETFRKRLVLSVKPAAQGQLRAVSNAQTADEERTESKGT
# assay.info: 125I-MCH competitive binding assay on clone 43 membranes (MCHR1 binding)
# measurement.conditions: competitive binding vs 100 pM 125I-MCH, clone 43 membranes (AV12 cells expressing MCHR1); Ki from IC50 by Cheng-Prusoff; tested in duplicate; read-out: MCHr Binding Ki
pKi: −log10 of the molar value.
readout.kind: pKi

CN(C)CCCCNC(=O)c1cccc(-c2ccc(CSCCOc3ccccc3)cc2)c1.O=C(O)C(=O)O [Example 3, oxalate] | 4.97
CN(C)CCCCNC(=O)c1ccc(-c2cccc(CSCCOc3ccccc3)c2)cc1.O=C(O)C(=O)O [Example 16, oxalate] | 5.05

A. CN(C)CCCNC(=O)c1cccc(-c2ccccc2CSCCOc2ccccc2)c1.O=C(O)C(=O)O [Example 21, oxalate]
B. CN(C)CCCNC(=O)c1cccc(-c2ccc(CSCCOc3ccccc3)cc2)c1.O=C(O)C(=O)O
Consider entries A and B . Which has the numerically lower pKi? Let me know the label of the one you choose.
A

====

Consider the following molecules and their measured melting point readings.

CN(C)CCCNC(=O)c1cccc(-c2cccc(CSCCOc3ccccc3)c2)c1.O=C(O)C(=O)O | 51 to 53 °C
CN(C)CCCCNC(=O)c1ccc(-c2ccc(CSCCOc3ccccc3)cc2)cc1.O=C(O)C(=O)O | 142 to 147 °C
CN(C)CCCNC(=O)c1cccc(-c2ccccc2CSCCOc2ccccc2)c1.O=C(O)C(=O)O | 97 to 100 °C

// returns reported melting point for input "CN(C)CCCNC(=O)c1ccc(-c2ccccc2CSCCOc2ccccc2)cc1"
98 to 100 °C

// returns reported melting point for input "CN(C)CCNC(=O)c1ccccc1-c1ccc(CSCCOc2ccccc2)cc1.O=C(O)C(=O)O"
109 to 113 °C

// returns reported melting point for input "CN(C)CCNC(=O)c1ccc(-c2cccc(CSCCOc3ccccc3)c2)cc1"
75 to 78 °C

====

# tested.on: human MCHR1 (Homo sapiens)
# Construct: The full-length cDNA for human MCHR1 was cloned; expressed in transfected cells; host or cells: AV12 cells previously transfected with Gα15
# assay.info: 125I-MCH competitive binding assay on clone 43 membranes (MCHR1 binding)
# measurement.conditions: competitive binding vs 100 pM 125I-MCH, clone 43 membranes (AV12 cells expressing MCHR1); Ki from IC50 by Cheng-Prusoff; tested in duplicate; read-out: MCHr Binding Ki
readout.kind: Ki (µM)

CN(C)CCCNC(=O)c1cccc(-c2cccc(CSCCOc3ccccc3)c2)c1.O=C(O)C(=O)O [Example 13, oxalate] | 8.76
CN(C)CCNC(=O)c1cccc(-c2ccc(CSCCOc3ccccc3)cc2)c1.O=C(O)C(=O)O [Example 2, oxalate] | 7.52
CN(C)CCNC(=O)c1ccc(-c2ccccc2CSCCOc2ccccc2)cc1 | 7.2
